# Tested on: JEG-3 cells
# Assay Details: Mitochondrial membrane potential, JC-10 assay (HTTS)
# Format: cell-based, human
# Test Settings: Homo sapiens, JEG-3, 24 h, read-out: MMP EC50 ± SE, JEG-3 cells, 24 h
# From the text: JEG-3 human choriocarcinoma trophoblastic cells (American Type Culture Collection, VA, United States) were maintained in sterile-filtered Minimum Essential Media (MEM) supplemented with L-glutamine and phenol red (Thermo Fisher Scientific, MA, United States), 10% (v/v) heat-inactivated BenchMark Fetal Bovine Serum (Gemini Bio, CA, United States), 1% (v/v) sodium pyruvate (Thermo Fisher Scientific, MA, United States), and 1% (v/v) penicillin streptomycin (Sigma Aldrich, MO, United States). […]
Parameter Measured: pEC50
Schema: pEC50 number; meaning minus log10 of the concentration expressed in molar units.

In [3]: df
Out[3]:
                                   compound  obs_value
0  O=S(=O)(O)C(F)(F)C(F)(F)C(F)(F)C(F)(F)C(F)(F)C(F)(F)F [Perfluorohexanesulfonic acid]       4.06

Here's the next entry for you.
Q: Provide value of pEC50 for this record tested with JEG-3 cells: O=C(O)C(F)(F)C(F)(F)C(F)(F)C(F)(F)C(F)(F)F [Perfluorohexanoic acid]
Result: 3.85
